Target: PTPN2 (Homo sapiens, UniProt P17706)
Construct: expressed in transfected cells; host or cells: 293T (293T.109 HiBiT-PTPN2 line; parental 293T WT from ATCC)
Sequence (P17706 whole entry, species assumed): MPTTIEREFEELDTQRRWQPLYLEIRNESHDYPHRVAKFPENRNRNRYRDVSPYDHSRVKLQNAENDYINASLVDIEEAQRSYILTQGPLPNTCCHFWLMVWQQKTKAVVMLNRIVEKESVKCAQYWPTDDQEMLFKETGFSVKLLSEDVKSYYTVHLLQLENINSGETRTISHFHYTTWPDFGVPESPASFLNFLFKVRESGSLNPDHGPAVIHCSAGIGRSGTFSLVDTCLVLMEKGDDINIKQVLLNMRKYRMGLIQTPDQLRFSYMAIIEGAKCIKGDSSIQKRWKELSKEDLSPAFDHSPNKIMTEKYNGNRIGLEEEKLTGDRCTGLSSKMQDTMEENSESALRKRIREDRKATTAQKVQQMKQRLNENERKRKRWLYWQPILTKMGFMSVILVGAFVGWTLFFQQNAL
Test: HiBiT-Degradation 293T.109 PTPN2 (Nano-Glo HiBiT Lytic Assay)
Format: cell-based
Settings: 293T.109 (HiBiT-PTPN2) cells, 24.0 hours
Assay Endpoint: DC50

Some solved entries appear below for comparison.
| Compound | Tested On | Result |
| --- | --- | --- |
| O=C1CCC(N2Cc3cc(NCC(=O)N4CCC(C(=O)NCCOc5ccc6cc(O)c(N7CC(=O)NS7(=O)=O)c(F)c6c5)CC4)ccc3C2=O)C(=O)N1 (stereo not drawn) [Example 35] | PTPN2 (Homo sapiens, UniProt P17706) | 200 to 1000 nM |
| O=C1CCC(N2C(=O)c3ccc(NCc4cn(CCC(=O)Nc5ccc6c(F)c(N7CC(=O)NS7(=O)=O)c(O)cc6c5)nn4)cc3C2=O)C(=O)N1 (stereo not drawn) [Example 14] | PTPN2 (Homo sapiens, UniProt P17706) | 200 to 1000 nM |
| O=C1CCC(N2C(=O)c3ccc(OCc4cn(CCC(=O)Nc5ccc6c(F)c(N7CC(=O)NS7(=O)=O)c(O)cc6c5)nn4)cc3C2=O)C(=O)N1 (stereo not drawn) [Example 60] | PTPN2 (Homo sapiens, UniProt P17706) | 200 to 1000 nM |

[Q] Which DC50 value is on record for O=C1CCC(N2Cc3c(NCc4cn(CCC(=O)Nc5ccc6c(F)c(N7CC(=O)NS7(=O)=O)c(O)cc6c5)nn4)cccc3C2=O)C(=O)N1 (stereo not drawn) [Example 62] ?
[A] 200 to 1000 nM

[Q] For Cn1c(=O)n([C@H]2CCC(=O)NC2=O)c2ccc(C3CCN(CC(=O)NCCOc4ccc5cc(O)c(N6CC(=O)NS6(=O)=O)c(F)c5c4)CC3)cc21 [Example 93] then?
[A] 10 to 50 nM

[Q] For Cn1c(=O)n(C2CCC(=O)NC2=O)c2ccc(C3CCN(CCCCOc4ccc5cc(O)c(N6CC(=O)NS6(=O)=O)c(F)c5c4)CC3)cc21 (stereo not drawn) [Example 128] then?
[A] 50 to 200 nM

----------
System: PTPN2
Experiment: HiBiT-Degradation B16F10.4 PTPN2
Type: cell-based
Details: B16F10.4 cells, 24.0 hours
Assay Endpoint: DC50

Some solved entries appear below for comparison.
| Compound | Tested On | DC50 |
| --- | --- | --- |
| O=C(C=Cc1ccc2cc(O)c(N3CC(=O)NS3(=O)=O)c(F)c2c1)NC1CCN(C(=O)COc2cccc3c2CN(C2CCC(=O)NC2=O)C3=O)CC1 (stereo not drawn) [Example 11] | PTPN2 | 200 to 1000 nM |
| Cn1c(=O)n(C2CCC(=O)NC2=O)c2ccc(C3CCN(CC(=O)N4CC=C(c5ccc6cc(O)c(N7CC(=O)NS7(=O)=O)c(F)c6c5)CC4)CC3)cc21 (stereo not drawn) [Example 119] | PTPN2 | 50 to 200 nM |
| Cn1c(=O)n(C2CCC(=O)NC2=O)c2ccc(C3CCN(CCC(=O)N4CC[C@H](c5ccc6cc(O)c(N7CC(=O)NS7(=O)=O)c(F)c6c5)C4)CC3)cc21 (stereo partly drawn) [Example 144] | PTPN2 | 50 to 200 nM |
| Cn1c(=O)n(C2CCC(=O)NC2=O)c2ccc(C3CCN(CC(=O)N4CCC(c5ccc6cc(O)c(N7CC(=O)NS7(=O)=O)c(F)c6c5)C4)CC3)cc21 (stereo not drawn) [Example 90] | PTPN2 | 200 to 1000 nM |
| Cn1c(=O)n(C2CCC(=O)NC2=O)c2ccc(C3CCN(CC(=O)N4CC(Nc5ccc6cc(O)c(N7CC(=O)NS7(=O)=O)c(F)c6c5)C4)CC3(F)F)cc21 (stereo not drawn) [Example 171] | PTPN2 | 50 to 200 nM |
| Cn1c(=O)n(C2CCC(=O)NC2=O)c2ccc(C3CCN(C(=O)c4ccc5c(F)c(N6CC(=O)NS6(=O)=O)c(O)cc5c4)CC3)cc21 (stereo not drawn) [Example 71] | PTPN2 | ≥ 1000 nM |
| CC(C)n1c(=O)n(C2CCC(=O)NC2=O)c2ccc(C3CCN(CC(=O)NCCOc4ccc5cc(O)c(N6CC(=O)NS6(=O)=O)c(F)c5c4)CC3)cc21 (stereo not drawn) [Example 85] | PTPN2 | 200 to 1000 nM |
| Cn1c(=O)n(C2CCC(=O)NC2=O)c2ccc([C@H]3CC[C@H](CNC(=O)c4ccc5c(F)c(N6CC(=O)NS6(=O)=O)c(O)cc5c4)CC3)cc21 (single isomer, unassigned) [Example 76] | PTPN2 | 50 to 200 nM |

[Q] Which DC50 value is on record for Cn1c(=O)n(C2CCC(=O)NC2=O)c2ccc(C3CCN(CCN4CCC(c5ccc6cc(O)c(N7CC(=O)NS7(=O)=O)c(F)c6c5)CC4)CC3)cc21 (stereo not drawn) [Example 123] ?
[A] 50 to 200 nM
